Cited source for all entries: patent EP4682145A1

Target: human FFAR1 (GPR40) (Homo sapiens, UniProt O14842)
Construct: Flag; expressed in transfected cells; host or cells: HEK293T
Sequence (O14842 whole entry): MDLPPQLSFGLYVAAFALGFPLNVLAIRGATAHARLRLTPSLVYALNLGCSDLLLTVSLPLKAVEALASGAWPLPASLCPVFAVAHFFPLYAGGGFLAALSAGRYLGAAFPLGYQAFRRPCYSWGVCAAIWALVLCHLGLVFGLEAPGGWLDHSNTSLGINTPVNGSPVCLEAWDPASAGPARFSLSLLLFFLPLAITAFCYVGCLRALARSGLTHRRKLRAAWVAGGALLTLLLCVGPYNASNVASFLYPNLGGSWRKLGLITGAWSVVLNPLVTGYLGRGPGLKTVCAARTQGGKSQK
Assay: NFAT-RE-based reporter gene activity assay (Dual-Glo luciferase) for GPR40 agonistic activity in co-transfected HEK293T cells
Assay type: cell-based
Conditions: 4-hour treatment, class symbols
QUANTITY_NAME: Efficacy (%)

| MOLECULE | MEASUREMENT |
| --- | --- |
| COc1cccc(N2CCC(c3oc4cc([C@@H](CC(=O)O)C5CC5)ccc4c3C(=O)Nc3cc(C)ccc3C)CC2)c1 [Compound 269] | ††† (Efficacy (%) > 150) |
| COc1ccc(F)c(N2CCC(c3oc4cc(C(CC(=O)O)C5CC5)ccc4c3-c3cccc(C)c3)CC2)c1 (stereo not shown) [Compound 157] | ††† (Efficacy (%) > 150) |

* * *

Experiment: Pharmacokinetic evaluation in ICR mice (intravenous and gavage)
Assay type: in vivo
Conditions: mouse, plasma, po, Gavage Administration (10 mg/kg)
Method: The bioavailability and pharmacokinetic behavior of the compounds were evaluated in mice. 6 male ICR mice with similar body weights were selected, among which 3 mice were administered a single gavage dose of 10 mg/kg, and the other 3 mice were intravenously administered a single dose of 5 mg/kg. […] The plasma samples were analyzed for concentration by LCMS/MS, and the pharmacokinetic parameters of the compounds were analyzed using the PKSolver free tool and non-compartmental analysis (NCA) software. […]
Reported Tmax values for the following compounds.
Please respond with the number in h and leave the unit unwritten.

The examples below pair each entry with its known result.
| COMPOUND | READOUT_UNIT | Tmax |
| --- | --- | --- |
| COc1ccc(F)c(N2CCC(c3oc4cc([C@@H](CC(=O)O)C5CC5)ccc4c3-c3cccc(C(C)(C)C)c3)CC2)c1 | h | 4 |
| COc1cccc(N2CCC(c3oc4cc([C@@H](CC(=O)O)C5CC5)ccc4c3-c3cnn(C(C)(C)C)c3)CC2)c1 | h | 2 |
| COc1ccc(F)c(N2CCC(c3oc4cc(C(CC(=O)O)C5CC5)ccc4c3-c3ccc(C(C)(C)C)cc3)CC2)c1 (stereo not shown) | h | 3 |

Turning to the following compound.
# lookup: Tmax of COc1cccc(N2CCC(c3oc4cc([C@@H](CC(=O)O)C5CC5)ccc4c3-c3cccc(C(C)(C)C)c3)CC2)c1
2

* * *

Target: human FFAR1 (GPR40) (Homo sapiens, UniProt O14842)
Construct: Flag
Experiment: NFAT-RE-based reporter gene activity assay (Dual-Glo luciferase) for GPR40 agonistic activity in co-transfected HEK293T cells
Settings: 4-hour treatment
Description: The pcDNA3.0-flag-FFAR1 (GPR40) plasmid was constructed using conventional molecular cloning methods. […] After 4 hours of compound treatment, the cells were assayed according to the instructions of the Dual-Glo® Luciferase Assay System (Promega, # E2940). […] Then, 80 µL of the lysate reaction solution was transferred to a white opaque optiPlate-96 well plate, and the luminescence signal of Firefly luciferase (Firefly-Luc) was measured using an MD i3x multifunctional microplate reader. […]
pEC50: −log10 of the molar value.
QUANTITY_NAME: pEC50

| COMPOUND | TEST_SYSTEM | QUANTITY_NAME | MEASUREMENT |
| --- | --- | --- | --- |
| COc1cccc(N2CCC(c3oc4cc(C(CC(=O)O)C5CC5)ccc4c3Cc3nnc(C(C)(C)C)o3)CC2)c1 (stereo not drawn) | human FFAR1 (GPR40) (Homo sapiens, UniProt O14842) | pEC50 | 6.30 to 7.00 |
| COc1cccc(N2CCC(c3oc4cc([C@@H](CC(=O)O)C5CC5)ccc4c3C(=O)Nc3cc(C)ccc3C)CC2)c1 | human FFAR1 (GPR40) (Homo sapiens, UniProt O14842) | pEC50 | 7.00 to 8.00 |

// fetch human FFAR1 (GPR40) (Homo sapiens, UniProt O14842) pEC50 for COc1cccc(N2CCC(c3oc4cc(C(CC(=O)O)C5CC5)ccc4c3C(=O)NC3C4CC5CC(C4)CC3C5)CC2)c1 (stereo not drawn)
7.00 to 8.00

// fetch human FFAR1 (GPR40) (Homo sapiens, UniProt O14842) pEC50 for COc1cccc(N2CCC(c3oc4cc([C@@H](CC(=O)O)C5CC5)ccc4c3-c3cc4cccc(F)c4[nH]3)CC2)c1
6.30 to 7.00

// fetch human FFAR1 (GPR40) (Homo sapiens, UniProt O14842) pEC50 for COc1cccc(N2CCC(c3oc4cc([C@@H](CC(=O)O)C5CC5)ccc4c3C(=O)Nc3cc(NC(C)=O)ccc3Cl)CC2)c1
6.30 to 7.00

// fetch human FFAR1 (GPR40) (Homo sapiens, UniProt O14842) pEC50 for COc1cccc(N2CCC(c3oc4cc(C(CC(=O)O)C5CC5)ccc4c3-c3nnc(C45CC6CC(CC(C6)C4)C5)o3)CC2)c1 (stereo not drawn)
6.30 to 7.00

// fetch human FFAR1 (GPR40) (Homo sapiens, UniProt O14842) pEC50 for COc1cccc(N2CCC(c3oc4cc([C@@H](CC(=O)O)C5CC5)ccc4c3C(=O)Nc3cc(C)ccc3Cl)CC2)c1
≥ 8.00

// fetch human FFAR1 (GPR40) (Homo sapiens, UniProt O14842) pEC50 for O=C(O)C[C@H](c1ccc2c(C(=O)Nc3cc(F)ccc3Br)c(C3CCN(c4ccc5c(c4)OCO5)CC3)oc2c1)C1CC1
≥ 8.00

// fetch human FFAR1 (GPR40) (Homo sapiens, UniProt O14842) pEC50 for COc1cccc(N2CCC(c3oc4cc([C@@H](CC(=O)O)C5CC5)ccc4c3-c3cnc(C(C)(C)C)s3)CC2)c1
7.00 to 8.00

// fetch human FFAR1 (GPR40) (Homo sapiens, UniProt O14842) pEC50 for COc1cccc(N2CCC(c3oc4cc([C@@H](CC(=O)O)C5CC5)ccc4c3C(=O)Nc3cc(C#N)ccc3Cl)CC2)c1
7.00 to 8.00

// fetch human FFAR1 (GPR40) (Homo sapiens, UniProt O14842) pEC50 for CCCC(C)(C)c1nnc(-c2c(C3CCN(c4cccc(OC)c4)CC3)oc3cc(C(CC(=O)O)C4CC4)ccc23)o1 (stereo not drawn)
7.00 to 8.00

// fetch human FFAR1 (GPR40) (Homo sapiens, UniProt O14842) pEC50 for COc1cccc(N2CCC(c3oc4cc([C@@H](CC(=O)O)C5CC5)ccc4c3C(=O)Nc3ccccc3Cl)CC2)c1F
≥ 8.00

// fetch human FFAR1 (GPR40) (Homo sapiens, UniProt O14842) pEC50 for CC(C)(C)c1nnc(-c2c(C3CCN(c4ccc5c(c4)OCO5)CC3)oc3cc([C@@H](CC(=O)O)C4CC4)ccc23)o1
7.00 to 8.00

// fetch human FFAR1 (GPR40) (Homo sapiens, UniProt O14842) pEC50 for COc1cccc(N2CCC(c3oc4cc([C@@H](CC(=O)O)C5CC5)ccc4c3C(C)OCC3CC3)CC2)c1 (stereo partly drawn)
6.30 to 7.00
